Target: Recombinant human renin (Homo sapiens)
Construct: isolate the active form (residues 67-406); made in house; host or cells: FreeStyle 293-F cells, transient expression of pcDNA3.1(+)/hREN
Experiment: In vitro enzymatic activity assay of renin inhibitors (fluorescence, QXL520/HiLyteFluo488 peptide substrate)
Type: biochemical
Settings: recombinant human renin 3 nM, 1 μM substrate, pre-incubated 10 minutes at 37° C., incubation one hour, pH 7.4, 5% DMSO; read-out: IC50 of Exemplified Compounds Against Renin
Would you mind telling me the reported IC50 of each entry?

Example entries and their recorded answers appear below.
Prompt: Hello, please tell me recorded IC50 for this one: COc1cccc(S(=O)(=O)NCCCn2c(C(=O)N3CCNCC3)c(-c3ccccc3)n(-c3cccc(N4CCOCC4)c3)c2=O)c1 [Example 198]
Response: 100 to 500 nM

Prompt: Hello, please tell me recorded IC50 for this one: O=C(c1c(-c2ccccc2)n(-c2ccccc2)c(=O)n1Cc1cccc2cccnc12)N1CCNCC1 [Example 82]
Response: > 1000 nM

Prompt: Hello, please tell me recorded IC50 for this one: COc1ccc(C(=O)NCCn2c(C(=O)N3CCNCC3)c(-c3ccccc3)n(-c3ccccc3C)c2=O)cc1 [Example 235]
Response: 500 to 1000 nM

Prompt: Hello, please tell me recorded IC50 for this one: O=C(c1c(-c2ccccc2)n([C@@H]2CCCC[C@H]2O)c(=O)n1Cc1cccc(Oc2ccccc2)c1)N1CCNCC1 [Example 106]
Response: 100 to 500 nM

Prompt: Hello, please tell me recorded IC50 for this one: Nc1nc(Cn2c(C(=O)N3CCNCC3)c(-c3ccccc3)n(-c3ccccc3)c2=O)cs1 [Example 50]
Response: 500 to 1000 nM

// each molecule listed below needs its IC50
1. COC(=O)NCCn1c(C(=O)N2CCNCC2)c(-c2ccccc2)n(-c2ccccc2C)c1=O [Example 249]
2. CC(C)NC(=O)NCCCn1c(C(=O)N2CCNCC2)c(-c2ccccc2)n(-c2cccc(N3CCOCC3)c2)c1=O [Example 61]

Response:
> 1000 nM
> 1000 nM

----------
Would you mind telling me the reported pIC50 of each entry?
Target: Recombinant human renin (Homo sapiens)
Construct: isolate the active form (residues 67-406); made in house; host or cells: FreeStyle 293-F cells, transient expression of pcDNA3.1(+)/hREN
Sequence (P00797 67-406): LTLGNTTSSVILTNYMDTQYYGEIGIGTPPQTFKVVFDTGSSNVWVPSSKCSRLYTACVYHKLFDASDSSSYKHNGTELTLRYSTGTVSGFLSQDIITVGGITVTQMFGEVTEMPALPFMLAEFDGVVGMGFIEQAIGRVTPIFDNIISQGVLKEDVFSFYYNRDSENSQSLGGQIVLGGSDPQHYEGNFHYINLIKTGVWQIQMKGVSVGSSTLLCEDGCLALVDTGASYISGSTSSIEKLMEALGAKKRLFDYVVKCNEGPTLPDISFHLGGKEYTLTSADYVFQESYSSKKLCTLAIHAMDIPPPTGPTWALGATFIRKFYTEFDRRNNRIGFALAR
Assay: In vitro enzymatic activity assay of renin inhibitors (fluorescence, QXL520/HiLyteFluo488 peptide substrate)
Assay type: biochemical
Details: recombinant human renin 3 nM, 1 μM substrate, pre-incubated 10 minutes at 37° C., incubation one hour, pH 7.4, 5% DMSO; read-out: IC50 of Exemplified Compounds Against Renin
pIC50: −log10 of the molar value.

Example entries and their recorded answers appear below.
Prompt: Hello, please tell me recorded pIC50 for this one: `COc1cccc(Cn2c(C(=O)N3CCNCC3)c(-c3ccccc3)n(-c3cccc(N4CCOCC4)c3)c2=O)c1`
Response: 6.30 to 7.00

Prompt: Hello, please tell me recorded pIC50 for this one: `O=C(c1c(-c2ccccc2)n(-c2cccc(N3CCOCC3)c2)c(=O)n1Cc1ccccc1)N1CCNCC1`
Response: 6.30 to 7.00

Prompt: Hello, please tell me recorded pIC50 for this one: `Cc1ccccc1-n1c(-c2ccccc2)c(C(=O)N2CCNCC2)n(Cc2cccc(Oc3ccccc3)c2)c1=O`
Response: 6.30 to 7.00

Prompt: Hello, please tell me recorded pIC50 for this one: `CCCCN1CCCc2ccc(-n3c(C4CC4)c(C(=O)N4CCNC[C@H]4Cc4ccccc4)[nH]c3=O)cc21`
Response: < 6.00

Prompt: Hello, please tell me recorded pIC50 for this one: `COc1ccccc1-n1c(-c2ccccc2)c(C(=O)N2CCNCC2)n(Cc2cccc(OCCOc3ccccc3)c2)c1=O`
Response: 6.30 to 7.00

Prompt: Hello, please tell me recorded pIC50 for this one: O=C(c1ccccc1)N1CCCC(n2c(-c3ccccc3)c(C(=O)N3CCNCC3)n(Cc3ccccc3)c2=O)C1 (stereo not drawn)
Response: < 6.00

Prompt: Hello, please tell me recorded pIC50 for this one: `COCCCOc1cccc(-n2c(-c3ccccc3)c(C(=O)N3CCNCC3)n(Cc3ccc(F)c(F)c3)c2=O)c1`
Response: 6.00 to 6.30

Prompt: Hello, please tell me recorded pIC50 for this one: `O=C(c1c(-c2ccccc2)n(-c2ccccc2)c(=O)n1Cc1cccc(F)c1)N1CCNCC1`
Response: 6.30 to 7.00

Prompt: Hello, please tell me recorded pIC50 for this one: `O=C(c1c(-c2ccccc2)n(-c2cccc(N3CCOCC3)c2)c(=O)n1CCCNS(=O)(=O)c1ccc(Cl)cc1)N1CCNCC1`
Response: 6.00 to 6.30

Prompt: Hello, please tell me recorded pIC50 for this one: `O=C(c1[nH]c(=O)n(-c2ccccc2)c1CC1CC1)N1CCNCC1`
Response: < 6.00

// each compound listed below needs its pIC50
1. O=C(c1c(-c2ccccc2)n(C2CCCCC2)c(=O)n1CCc1ccccc1)N1CCNCC1
2. COc1ccccc1C(=O)NCCCn1c(C(=O)N2CCNCC2)c(-c2ccccc2)n(-c2ccccc2C)c1=O
3. Cc1ccccc1-n1c(-c2ccccc2)c(C(=O)N2CCNCC2)n(CCCNC(=O)Nc2ccccc2)c1=O

Response:
["6.30 to 7.00", "< 6.00", "6.00 to 6.30"]
